Biological target: T1, mgp130 ECD antigen (mouse, UniProt Q00560 23-617)
T1 construct: Antigen of biopanning and PE-ELISA; The immunogen was an ECD-human IgG1 hinge-Fc fusion; also called ECD of mouse gp130; ngp130 ECD antigen (so in the source)
T1 sequence: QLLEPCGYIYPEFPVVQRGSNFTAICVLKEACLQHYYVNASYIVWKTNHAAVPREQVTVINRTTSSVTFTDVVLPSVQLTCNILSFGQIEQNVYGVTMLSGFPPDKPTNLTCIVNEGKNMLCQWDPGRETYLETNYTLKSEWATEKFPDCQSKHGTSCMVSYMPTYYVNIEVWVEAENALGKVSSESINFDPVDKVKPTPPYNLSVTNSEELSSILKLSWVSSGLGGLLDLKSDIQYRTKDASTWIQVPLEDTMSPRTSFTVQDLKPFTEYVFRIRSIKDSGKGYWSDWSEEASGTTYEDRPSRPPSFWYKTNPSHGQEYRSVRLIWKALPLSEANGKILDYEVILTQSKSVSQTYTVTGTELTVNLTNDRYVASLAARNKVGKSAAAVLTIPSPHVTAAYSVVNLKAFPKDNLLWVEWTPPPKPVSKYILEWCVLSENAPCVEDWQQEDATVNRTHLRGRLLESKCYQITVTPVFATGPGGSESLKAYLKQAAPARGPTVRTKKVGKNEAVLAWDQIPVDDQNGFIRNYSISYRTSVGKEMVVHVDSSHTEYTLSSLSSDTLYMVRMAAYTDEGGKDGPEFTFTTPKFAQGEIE
Experiment: periplasmic extract ELISA (PE-ELISA) of phage clones

binder | binding result
mgp130_VHH32 (VHH, As periplasmic extract of the phage clone; also called anti-mouse gp130 VHH; not shown: HA/His tag of the pMECS phagemid) VHH: QVQLQESGGGSVQAGGSLRVSCVVSGFTYRQTFMGWFRQVPGKEREGVAAISTGGGSTVYADSVKGRFTISQDSSKNTVYLEMNGLKLEDTGMYYCAASTVITSVSINRNLYQYWGQGTQVTVSS | binds
mgp130_VHH36 (VHH, As periplasmic extract of the phage clone; also called anti-mouse gp130 VHH; not shown: HA/His tag of the pMECS phagemid) VHH: QVQLQESGGGSVQAGGSLRLSCVISGFTYRQTFMGWFRQVVGKEREGVAAISTGGGSMVYADSVKGRFTISQDSSKDTVYLEMNGLKLEDTGMYYCAASTVITSESINRNLYQYWGQGTQVTVSS | binds
